Taken from patent US20240336574A1.

So I've got a bunch of compounds here, and I need their IC50 values.
target: recombinant human NaV1.8 stably transfected HEK cells (Homo sapiens); construct: expressed in transfected cells; host or cells: HEK cells, stably transfected; assay: Compound profiling on NaV1.8, human NaV1.8 cell line, SyncroPatch384PE automated patch clamp assay (Example 102, first set of compounds, Table 16); type: cell-based; details: resting state block (P1 measurement), human NaV1.8 HEK cells, Table 16 (first set of compounds), read-out: P1IC50
Sequence (Q9Y5Y9 whole entry): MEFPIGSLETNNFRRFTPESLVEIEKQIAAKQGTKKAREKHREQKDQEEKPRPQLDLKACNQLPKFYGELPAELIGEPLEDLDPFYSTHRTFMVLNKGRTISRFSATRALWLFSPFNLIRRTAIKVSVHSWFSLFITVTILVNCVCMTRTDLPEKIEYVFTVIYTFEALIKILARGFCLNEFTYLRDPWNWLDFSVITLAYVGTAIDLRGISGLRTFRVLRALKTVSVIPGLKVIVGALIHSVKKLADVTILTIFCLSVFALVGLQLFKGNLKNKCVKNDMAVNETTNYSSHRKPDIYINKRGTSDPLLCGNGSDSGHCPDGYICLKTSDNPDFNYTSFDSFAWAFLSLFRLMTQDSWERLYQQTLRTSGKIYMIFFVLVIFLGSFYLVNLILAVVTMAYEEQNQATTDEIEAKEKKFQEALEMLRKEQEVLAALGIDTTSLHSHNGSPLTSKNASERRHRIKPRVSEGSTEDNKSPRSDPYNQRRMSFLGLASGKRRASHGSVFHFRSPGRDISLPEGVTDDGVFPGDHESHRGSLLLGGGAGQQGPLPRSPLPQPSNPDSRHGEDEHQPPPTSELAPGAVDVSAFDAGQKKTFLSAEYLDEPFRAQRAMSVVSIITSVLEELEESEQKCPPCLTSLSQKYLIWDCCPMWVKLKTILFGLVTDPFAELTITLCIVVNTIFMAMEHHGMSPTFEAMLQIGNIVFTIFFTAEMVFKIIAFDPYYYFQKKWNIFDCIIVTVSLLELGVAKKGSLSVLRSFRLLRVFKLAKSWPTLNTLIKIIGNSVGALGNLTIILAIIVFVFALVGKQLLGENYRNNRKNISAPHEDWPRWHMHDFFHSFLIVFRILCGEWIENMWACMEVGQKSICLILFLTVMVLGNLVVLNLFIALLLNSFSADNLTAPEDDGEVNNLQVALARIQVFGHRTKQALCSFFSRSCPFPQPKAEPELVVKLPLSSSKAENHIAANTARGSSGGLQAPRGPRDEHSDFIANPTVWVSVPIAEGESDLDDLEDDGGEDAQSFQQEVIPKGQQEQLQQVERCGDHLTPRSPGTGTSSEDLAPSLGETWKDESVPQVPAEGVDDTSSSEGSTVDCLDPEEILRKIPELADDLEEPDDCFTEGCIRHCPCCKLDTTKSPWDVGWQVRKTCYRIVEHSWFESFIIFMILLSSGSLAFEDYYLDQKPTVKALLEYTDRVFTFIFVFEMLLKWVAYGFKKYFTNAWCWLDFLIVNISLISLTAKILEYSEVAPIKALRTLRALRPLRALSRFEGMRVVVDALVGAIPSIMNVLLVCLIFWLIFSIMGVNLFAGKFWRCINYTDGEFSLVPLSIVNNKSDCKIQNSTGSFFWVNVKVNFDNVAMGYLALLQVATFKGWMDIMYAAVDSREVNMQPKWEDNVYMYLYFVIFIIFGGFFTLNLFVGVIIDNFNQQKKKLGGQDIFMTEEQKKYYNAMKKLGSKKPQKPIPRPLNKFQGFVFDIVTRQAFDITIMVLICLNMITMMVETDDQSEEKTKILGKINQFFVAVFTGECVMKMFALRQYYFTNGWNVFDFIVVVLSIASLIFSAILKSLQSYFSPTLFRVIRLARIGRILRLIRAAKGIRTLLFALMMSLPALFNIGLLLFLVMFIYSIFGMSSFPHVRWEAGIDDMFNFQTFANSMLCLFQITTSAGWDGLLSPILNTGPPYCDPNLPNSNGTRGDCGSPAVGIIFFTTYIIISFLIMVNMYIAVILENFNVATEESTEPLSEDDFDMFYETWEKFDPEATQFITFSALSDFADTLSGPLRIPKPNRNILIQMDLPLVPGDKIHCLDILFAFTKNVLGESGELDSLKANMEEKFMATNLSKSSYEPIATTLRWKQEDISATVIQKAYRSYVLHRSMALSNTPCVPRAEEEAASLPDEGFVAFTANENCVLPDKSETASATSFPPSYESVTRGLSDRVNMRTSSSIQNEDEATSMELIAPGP

Hey, recombinant human NaV1.8 stably transfected HEK cells (Homo sapiens) data for COc1cc(C#N)ccc1Oc1nnc(-c2ccnnc2)c(C)c1C(=O)Nc1cccc(S(C)(=N)=O)c1 (centres unmarked) : IC50 came out at 200 to 500 nM

Hey, recombinant human NaV1.8 stably transfected HEK cells (Homo sapiens) data for COc1cc(F)ccc1Oc1nnc(C(F)(F)F)c(C)c1C(=O)Nc1ccc(C(N)=O)cc1 : IC50 came out at ≤ 20 nM

Hey, recombinant human NaV1.8 stably transfected HEK cells (Homo sapiens) data for Cc1c(Oc2nnc(C(F)(F)F)c(C)c2C(=O)Nc2cccc(S(C)(=N)=O)c2)ccc(OC(F)(F)F)c1F (centres unmarked) : IC50 came out at ≤ 20 nM

Hey, recombinant human NaV1.8 stably transfected HEK cells (Homo sapiens) data for Cc1cc(Br)ccc1Oc1nnc(C(F)(F)F)c(C)c1C(=O)Nc1ccc(C(N)=O)cc1 : IC50 came out at 20 to 40 nM

Hey, recombinant human NaV1.8 stably transfected HEK cells (Homo sapiens) data for Cc1cc(F)ccc1Oc1nnc(N2CC(F)C2)c(C)c1C(=O)Nc1cccc(S(C)(=N)=O)c1 (centres unmarked) : IC50 came out at 200 to 500 nM

Hey, recombinant human NaV1.8 stably transfected HEK cells (Homo sapiens) data for COc1c(Oc2ncc(Br)cc2C(=O)Nc2cccc(C(N)=O)c2)ccc(F)c1F : IC50 came out at 20 to 40 nM

Hey, recombinant human NaV1.8 stably transfected HEK cells (Homo sapiens) data for COc1c(Oc2nnc(C)c(C)c2C(=O)Nc2cccc(S(C)(=N)=O)c2)ccc(F)c1F (centres unmarked) : IC50 came out at 200 to 500 nM

Hey, recombinant human NaV1.8 stably transfected HEK cells (Homo sapiens) data for COc1c(Oc2ncc(Br)cc2C(=O)Nc2cccc(S(C)(=N)=O)c2)ccc(F)c1F (centres unmarked) : IC50 came out at ≤ 20 nM
